Numbers sourced from patent US20240209076A1.

What koff was measured for each of the following?
- EXPERIMENTAL TARGET: T1, human IL-6 (human, UniProt P05231 30-212)
- T1 construct: IL-6 flowed over captured antibodies
- T1 sequence (P05231 30-212 limits assumed): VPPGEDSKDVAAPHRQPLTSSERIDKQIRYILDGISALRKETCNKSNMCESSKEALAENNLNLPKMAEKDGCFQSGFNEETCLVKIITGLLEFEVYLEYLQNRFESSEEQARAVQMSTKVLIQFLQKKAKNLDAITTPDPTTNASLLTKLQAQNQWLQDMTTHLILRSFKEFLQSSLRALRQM
- EXPERIMENT SUMMARY: SPR Biacore, supernatant Ab on Protein A chip, 37 C
Numbers only, in s⁻¹.

1) anti-IL-6 antibody, heavy chain I51D, G66D / light chain M32L, M50D, N52S, M88Q (antibody, IgG1, V domains shown, Full IgG1 (Expi293); VL = variant III) VH: EVQLVESGGGLVQPGGSLRLSCAASGFTFSPFAMSWVRQAPGKGLEWVAKDSPGGSWTYYSDTVTDRFTFSLDTSKSTAYLQMNSLRAEDTAVYYCARQLWGYYALDIWGQGTLVTVSS VL: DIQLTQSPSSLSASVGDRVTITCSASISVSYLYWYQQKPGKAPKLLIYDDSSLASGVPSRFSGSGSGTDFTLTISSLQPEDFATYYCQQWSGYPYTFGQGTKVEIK | 0.00799

Field: koff. Fill in for each record below.
1. anti-IL-6 antibody, heavy chain T63K, G66D / light chain M32L, M50D, N52S, M88Q (antibody, IgG1, V domains shown, Full IgG1 (Expi293); VL = variant III) VH: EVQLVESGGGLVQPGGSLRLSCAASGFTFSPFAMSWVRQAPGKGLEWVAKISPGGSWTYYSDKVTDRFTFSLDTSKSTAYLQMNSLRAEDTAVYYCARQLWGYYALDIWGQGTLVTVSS VL: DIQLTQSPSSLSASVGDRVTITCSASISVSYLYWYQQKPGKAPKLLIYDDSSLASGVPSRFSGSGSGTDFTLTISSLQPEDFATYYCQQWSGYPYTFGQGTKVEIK
2. anti-IL-6 antibody, heavy chain T65P, G66D / light chain M32L, M50D, N52S, M88Q (antibody, IgG1, V domains shown, Full IgG1 (Expi293); VL = variant III) VH: EVQLVESGGGLVQPGGSLRLSCAASGFTFSPFAMSWVRQAPGKGLEWVAKISPGGSWTYYSDTVPDRFTFSLDTSKSTAYLQMNSLRAEDTAVYYCARQLWGYYALDIWGQGTLVTVSS VL: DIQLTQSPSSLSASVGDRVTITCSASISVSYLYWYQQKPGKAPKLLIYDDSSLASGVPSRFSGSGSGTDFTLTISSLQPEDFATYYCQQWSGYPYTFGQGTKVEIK

1. 0.000529
2. 0.00108
